- TARGET UNDER TEST: T1, human RAGE-Fc fusion protein (human, UniProt Q15109 23-344)
- T1 construct: also called hRAGE-Fc; huRAGE-Fc; not shown: Fc domain of human IgG
- TEST METHOD NOTES: competition ELISA on human RAGE-Fc; labelled competitor not named
Threshold 7 nM. ED50 below it: criterion met. ED50 at it or above: criterion not met.

Below 7 nM on ED50? Entry V2.3 (I48M) / v2.0 (antibody, V domains shown, XT-H2 construct expressed in COS cells; also called XT-H2 hVH V2.3 + hVL V2.0) VH: QVQLVQSGAEVKKPGASVKVSCKASGYTFTTYWMHWVRQRPGQGLYWMGYINPSTGYTEYNQKFKDRVTMTADTSISTAYMELSRLRSDDTAVYYCARWAGYTIDYWGQGTLVTVSS VL: DVVLTQTPLSLSVTPGQPASISCKSTKSLLNSDGFTYLDWYLQKPGQSPQLLIYLVSDRFSGVPDRFSGSGSGTDFTLKISRVEAEDVGVYYCFQSNSLPLTFGGGTKVEIK
criterion met

Also check V2.0 (R40, Y46, I48, A71, K73) / v2.0 (V2, L4, S48) (antibody, V domains shown, XT-H2 construct expressed in COS cells; also called XT-H2 hVH V2.0 + hVL V2.0) VH: QVQLVQSGAEVKKPGASVKVSCKASGYTFTTYWMHWVRQRPGQGLYWIGYINPSTGYTEYNQKFKDRVTMTADTSISTAYMELSRLRSDDTAVYYCARWAGYTIDYWGQGTLVTVSS VL: DVVLTQTPLSLSVTPGQPASISCKSTKSLLNSDGFTYLDWYLQKPGQSPQLLIYLVSDRFSGVPDRFSGSGSGTDFTLKISRVEAEDVGVYYCFQSNSLPLTFGGGTKVEIK
criterion met

Also check V2.1 (R40A) / mVL (antibody, V domains shown, XT-H2 construct expressed in COS cells; also called XT-H2 hVH V2.1 + mVL) VH: QVQLVQSGAEVKKPGASVKVSCKASGYTFTTYWMHWVRQAPGQGLYWIGYINPSTGYTEYNQKFKDRVTMTADTSISTAYMELSRLRSDDTAVYYCARWAGYTIDYWGQGTLVTVSS VL: DVVLTQTPLSLPVNIGDQASISCKSTKSLLNSDGFTYLDWYLQKPGQSPQLLIYLVSDRFSGVPDRFSGSGSGTDFTLTISRVEAEDLGVYYCFQSNSLPLTFGSGTKLEIK
criterion not met

Also check V2.0 (R40, Y46, I48, A71, K73) / v2.1 (V2I, L4M) (antibody, V domains shown, XT-H2 construct expressed in COS cells; also called XT-H2 hVH V2.0 + hVL V2.1) VH: QVQLVQSGAEVKKPGASVKVSCKASGYTFTTYWMHWVRQRPGQGLYWIGYINPSTGYTEYNQKFKDRVTMTADTSISTAYMELSRLRSDDTAVYYCARWAGYTIDYWGQGTLVTVSS VL: DIVMTQTPLSLSVTPGQPASISCKSTKSLLNSDGFTYLDWYLQKPGQSPQLLIYLVSDRFSGVPDRFSGSGSGTDFTLKISRVEAEDVGVYYCFQSNSLPLTFGGGTKVEIK
criterion met

Also check V2.3 (I48M) / v3.0 (antibody, V domains shown, XT-H2 construct expressed in COS cells; also called XT-H2 hVH V2.3 + hVL V3.0) VH: QVQLVQSGAEVKKPGASVKVSCKASGYTFTTYWMHWVRQRPGQGLYWMGYINPSTGYTEYNQKFKDRVTMTADTSISTAYMELSRLRSDDTAVYYCARWAGYTIDYWGQGTLVTVSS VL: DIVMTQSPDSLAVSLGERATINCKSTKSLLNSDGFTYLDWYQQKPGQPPKLLIYLVSDRFSGVPDRFSGSGSGTDFTLTISSLQAEDVAVYYCFQSNSLPLTFGGGTKVEIK
criterion met

Also check V2.3 (I48M) / mVL (antibody, V domains shown, XT-H2 construct expressed in COS cells; also called XT-H2 hVH V2.3 + mVL) VH: QVQLVQSGAEVKKPGASVKVSCKASGYTFTTYWMHWVRQRPGQGLYWMGYINPSTGYTEYNQKFKDRVTMTADTSISTAYMELSRLRSDDTAVYYCARWAGYTIDYWGQGTLVTVSS VL: DVVLTQTPLSLPVNIGDQASISCKSTKSLLNSDGFTYLDWYLQKPGQSPQLLIYLVSDRFSGVPDRFSGSGSGTDFTLTISRVEAEDLGVYYCFQSNSLPLTFGSGTKLEIK
criterion not met

Also check V2.2 (Y46E) / v2.1 (antibody, V domains shown, XT-H2 construct expressed in COS cells; also called XT-H2 hVH V2.2 + hVL V2.1) VH: QVQLVQSGAEVKKPGASVKVSCKASGYTFTTYWMHWVRQRPGQGLEWIGYINPSTGYTEYNQKFKDRVTMTADTSISTAYMELSRLRSDDTAVYYCARWAGYTIDYWGQGTLVTVSS VL: DIVMTQTPLSLSVTPGQPASISCKSTKSLLNSDGFTYLDWYLQKPGQSPQLLIYLVSDRFSGVPDRFSGSGSGTDFTLKISRVEAEDVGVYYCFQSNSLPLTFGGGTKVEIK
criterion met

Also check V2.0 (R40, Y46, I48, A71, K73) / mVL (antibody, V domains shown, XT-H2 construct expressed in COS cells; also called XT-H2 hVH V2.0 + mVL) VH: QVQLVQSGAEVKKPGASVKVSCKASGYTFTTYWMHWVRQRPGQGLYWIGYINPSTGYTEYNQKFKDRVTMTADTSISTAYMELSRLRSDDTAVYYCARWAGYTIDYWGQGTLVTVSS VL: DVVLTQTPLSLPVNIGDQASISCKSTKSLLNSDGFTYLDWYLQKPGQSPQLLIYLVSDRFSGVPDRFSGSGSGTDFTLTISRVEAEDLGVYYCFQSNSLPLTFGSGTKLEIK
criterion not met

Also check V2.2 (Y46E) / v2.0 (antibody, V domains shown, XT-H2 construct expressed in COS cells; also called XT-H2 hVH V2.2 + hVL V2.0) VH: QVQLVQSGAEVKKPGASVKVSCKASGYTFTTYWMHWVRQRPGQGLEWIGYINPSTGYTEYNQKFKDRVTMTADTSISTAYMELSRLRSDDTAVYYCARWAGYTIDYWGQGTLVTVSS VL: DVVLTQTPLSLSVTPGQPASISCKSTKSLLNSDGFTYLDWYLQKPGQSPQLLIYLVSDRFSGVPDRFSGSGSGTDFTLKISRVEAEDVGVYYCFQSNSLPLTFGGGTKVEIK
criterion met
